target: CAR (Homo sapiens); construct: Eurofine Cerep / Eurofine Panlabs Discovery Services; assay: Selectivity, NR functional assay; conditions: NR functional assay
Sequence (Q14994 whole entry): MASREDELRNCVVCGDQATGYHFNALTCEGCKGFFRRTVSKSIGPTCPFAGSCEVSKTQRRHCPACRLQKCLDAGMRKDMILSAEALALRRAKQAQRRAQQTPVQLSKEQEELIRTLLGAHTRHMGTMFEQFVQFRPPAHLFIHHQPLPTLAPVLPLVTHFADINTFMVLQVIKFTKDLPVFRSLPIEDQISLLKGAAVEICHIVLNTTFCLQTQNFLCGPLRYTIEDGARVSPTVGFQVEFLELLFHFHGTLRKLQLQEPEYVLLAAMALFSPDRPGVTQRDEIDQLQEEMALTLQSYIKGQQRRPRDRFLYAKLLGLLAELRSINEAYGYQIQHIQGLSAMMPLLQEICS
Measurement Name: EC50

Task: // returns reported EC50 for input COc1cc(Cl)cc(N(CC23CCC(c4ccc(OC)c(C#N)c4)(CC2)CC3)C(=O)c2ccncc2C)c1 [Compound 20p]
Result: > 30 µM

====

Molecular target: GPR120 (Homo sapiens)
Construct: Eurofine Cerep / Eurofine Panlabs Discovery Services
Sequence (Q5NUL3 1-361): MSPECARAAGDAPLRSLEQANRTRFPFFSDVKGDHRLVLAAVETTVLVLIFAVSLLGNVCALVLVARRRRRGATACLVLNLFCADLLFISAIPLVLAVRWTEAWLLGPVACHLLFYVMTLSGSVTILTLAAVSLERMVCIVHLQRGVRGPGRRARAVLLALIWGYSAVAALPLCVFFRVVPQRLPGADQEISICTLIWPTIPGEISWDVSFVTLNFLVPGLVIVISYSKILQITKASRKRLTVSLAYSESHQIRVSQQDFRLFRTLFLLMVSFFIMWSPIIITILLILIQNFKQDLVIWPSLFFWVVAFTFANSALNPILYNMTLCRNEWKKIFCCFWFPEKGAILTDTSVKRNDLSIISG
Assay: Selectivity, cellular functional assay
Details: cellular functional assay
Measurement Name: EC50

Task: // returns reported EC50 for input COc1cc(Cl)cc(N(CC23CCC(c4ccc(OC)c(C#N)c4)(CC2)CC3)C(=O)c2ccncc2C)c1 [Compound 20p]
Result: > 30 µM

====

Would you kindly list FXR Efficacy (%) (10 µM) for each of these molecules?
Target: FXR (Homo sapiens)
Construct: host or cells: CHO cells
Sequence (Q96RI1 1-486): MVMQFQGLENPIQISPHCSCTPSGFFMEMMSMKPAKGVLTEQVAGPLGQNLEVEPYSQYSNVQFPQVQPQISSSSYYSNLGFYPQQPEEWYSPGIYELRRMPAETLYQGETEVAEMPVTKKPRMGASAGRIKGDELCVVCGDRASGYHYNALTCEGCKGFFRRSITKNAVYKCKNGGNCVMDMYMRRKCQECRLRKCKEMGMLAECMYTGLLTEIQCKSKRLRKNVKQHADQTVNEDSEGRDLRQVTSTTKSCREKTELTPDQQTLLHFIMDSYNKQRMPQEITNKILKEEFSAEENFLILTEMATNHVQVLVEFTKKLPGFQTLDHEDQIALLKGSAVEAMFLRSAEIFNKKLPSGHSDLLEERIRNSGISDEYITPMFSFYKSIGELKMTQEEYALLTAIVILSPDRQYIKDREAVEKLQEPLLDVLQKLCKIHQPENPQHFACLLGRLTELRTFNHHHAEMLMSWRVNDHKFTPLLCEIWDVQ
Assay: CHO cell-based FXR luciferase reporter assay (Indigo Biosciences)
Conditions: 10 µM; % vs OCA 1 µM as 100%
Only the number, expressed in %, is required.

Task: // returns reported FXR Efficacy (%) (10 µM) for input COC(=O)/C=C/c1cccc(N(Cc2ccc(-c3ccc(N(C)C)cc3)cc2)C(=O)c2cccnc2)c1 [Compound 13c]
Result: 68.1

Task: Now the same for COC(=O)/C=C/c1cccc(N(Cc2ccc(-c3ccc(N(C)C)cc3)cc2)C(=O)C2CCCCC2)c1 [Compound 7, Fexaramine, reference compound]
Result: 130.9

Task: Now the same for Cc1cnccc1C(=O)N(C[C@H]1CC[C@H](c2ccc(N(C)C)cc2)CC1)c1cc(Cl)cc(Cl)c1 [Compound 20b]
Result: 106.8

Task: Now the same for COC(=O)/C=C/c1cccc(N(Cc2ccc(-c3ccc(N(C)C)cc3)cc2)C(=O)c2ccccc2)c1 [Compound 13d]
Result: 88.9

Task: Now the same for COc1ccc([C@H]2CC[C@H](CN(C(=O)c3ccncc3C)c3cc(Cl)cc(Cl)c3)CC2)cc1C [Compound 20d]
Result: 129.6

Task: Now the same for COc1ccc(C23CCC(CN(C(=O)c4ccncc4C)c4cc(Cl)cc(Cl)c4)(CC2)CC3)cc1C [Compound 20f]
Result: 64.3

Task: Now the same for COC(=O)/C=C/c1cccc(N(Cc2ccc(-c3ccc(N(C)C)cc3)cc2)C(=O)c2ccncc2C)c1 [Compound 13a]
Result: 100.2

Task: Now the same for COc1ccc([C@@H]2CC[C@@H](CN(C(=O)c3ccncc3C)c3cc(Cl)cc(Cl)c3)C(C)C2)cc1C (stereo partly drawn) [Compound 20e]
Result: 72.6

Task: Now the same for COC(=O)/C=C/c1cccc(N(Cc2ccc(-c3ccc(N(C)C)cc3)cc2)C(=O)c2ccncc2)c1 [Compound 13b]
Result: 86.9

====

biological target: FXR (Homo sapiens, UniProt Q96RI1); construct: host or cells: CHO cells; assay: CHO cell-based FXR luciferase reporter assay (Indigo Biosciences)
Measurement Name: FXR agonist activity (in words)

Consider the reported FXR agonist activity (in words) for these compounds:
# Compound, Measurement Name, Observed
rows = [
    ("CN(C)c1ccc(-c2ccc(CN(C(=O)c3ccc(O)cc3Cl)c3cc(Cl)cc(Cl)c3)cc2)cc1 [Compound 13af]", "FXR agonist activity (in words)", "strong FXR activities"),
    ("COc1ccc([C@H]2CC[C@H](CN(C(=O)c3ccncc3C)c3cc(Cl)cc(Cl)c3)CC2)cc1C [Compound 20d]", "FXR agonist activity (in words)", "partial FXR agonists"),
    ("COc1ccc([C@@H]2CC[C@@H](CN(C(=O)c3ccncc3C)c3cc(Cl)cc(Cl)c3)C(C)C2)cc1C (stereo partly drawn) [Compound 20e]", "FXR agonist activity (in words)", "partial FXR agonists"),
    ("COc1ccc(C23CCC(CN(C(=O)c4ccncc4C)c4cc(Cl)cc(Cl)c4)(CC2)CC3)cc1C [Compound 20f]", "FXR agonist activity (in words)", "partial FXR agonists"),
    ("CN(C)c1ccc(-c2ccc(CN(C(=O)c3ccccc3Cl)c3cc(Cl)cc(Cl)c3)cc2)cc1 [Compound 13ac]", "FXR agonist activity (in words)", "strong FXR activities"),
    ("COc1ccc(C(=O)N(Cc2ccc(-c3ccc(N(C)C)cc3)cc2)c2cc(Cl)cc(Cl)c2)c(Cl)c1 [Compound 13ag]", "FXR agonist activity (in words)", "strong FXR activities"),
]

Please find the next compound below.
Task: // returns reported FXR agonist activity (in words) for input CN(C)c1ccc(-c2ccc(CN(C(=O)C3CCC(O)CC3)c3cc(Cl)cc(Cl)c3)cc2)cc1 (stereo not drawn) [Compound 13ae]
Result: strong FXR activities

====

Molecular target: TGR5 (Homo sapiens, UniProt Q8TDU6)
Construct: host or cells: CHO cells
Sequence (Q8TDU6 1-330): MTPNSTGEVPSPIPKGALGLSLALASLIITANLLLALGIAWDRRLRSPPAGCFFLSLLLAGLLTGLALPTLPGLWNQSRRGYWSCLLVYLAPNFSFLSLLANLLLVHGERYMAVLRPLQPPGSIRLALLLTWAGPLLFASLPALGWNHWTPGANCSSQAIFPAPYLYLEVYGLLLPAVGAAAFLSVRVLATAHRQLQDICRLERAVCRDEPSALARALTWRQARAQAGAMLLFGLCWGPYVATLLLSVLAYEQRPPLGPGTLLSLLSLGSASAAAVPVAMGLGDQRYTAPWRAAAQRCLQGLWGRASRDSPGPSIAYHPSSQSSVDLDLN
Test: TGR5 cAMP assay in CHO cells transfected with TGR5 (cAMP Hunter eXpress, Discover X)
Type: cell-based
Measurement Name: TGR5 agonist activity (in words)

Consider the reported TGR5 agonist activity (in words) for these compounds:
# Compound, Observed
data = [
    ("COC(=O)/C=C/c1cccc(N(Cc2ccc(-c3ccc(N(C)C)cc3)cc2)C(=O)c2ccncc2C)c1 [Compound 13a]", "inactive against TGR5"),
    ("COc1ccc([C@@H]2CC[C@@H](CN(C(=O)c3ccncc3C)c3cc(Cl)cc(Cl)c3)C(C)C2)cc1C (stereo partly shown) [Compound 20e]", "weak TGR5 agonist"),
    ("COc1ccc([C@H]2CC[C@H](CN(C(=O)c3ccncc3C)c3cc(Cl)cc(Cl)c3)CC2)cc1C [Compound 20d]", "weak TGR5 agonist"),
    ("COc1ccc(C23CCC(CN(C(=O)c4ccncc4C)c4cc(Cl)cc(Cl)c4)(CC2)CC3)cc1C [Compound 20f]", "weak TGR5 agonist"),
]

Please find the next compound below.
Task: // returns reported TGR5 agonist activity (in words) for input COC(=O)/C=C/c1cccc(N(Cc2ccc(-c3ccc(N(C)C)cc3)cc2)C(=O)c2ccncc2)c1 [Compound 13b]
Result: inactive against TGR5

====

Target: PXR (Homo sapiens, UniProt O75469)
Construct: Eurofine Cerep / Eurofine Panlabs Discovery Services
Sequence (O75469 1-434): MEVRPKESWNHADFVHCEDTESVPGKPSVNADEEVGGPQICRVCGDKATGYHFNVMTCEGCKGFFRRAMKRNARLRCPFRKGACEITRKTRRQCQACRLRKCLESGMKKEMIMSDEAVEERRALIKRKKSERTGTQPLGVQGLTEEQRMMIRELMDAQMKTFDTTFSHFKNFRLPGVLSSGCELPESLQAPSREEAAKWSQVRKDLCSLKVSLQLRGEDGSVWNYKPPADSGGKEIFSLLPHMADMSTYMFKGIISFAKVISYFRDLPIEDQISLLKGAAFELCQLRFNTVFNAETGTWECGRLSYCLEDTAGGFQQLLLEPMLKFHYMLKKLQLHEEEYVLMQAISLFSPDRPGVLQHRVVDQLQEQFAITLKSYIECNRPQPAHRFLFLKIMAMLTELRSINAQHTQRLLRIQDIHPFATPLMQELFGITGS
Assay: Selectivity, NR functional assay
Settings: NR functional assay
Description: Compound 20p was screened against a broad panel of NRs and GPCRs to determine its agonist activity in vitro. […] The selectivity tests of compound 20p were investigated by Eurofine Cerep (86600, Celle-Levescault, France) and Eurofine Panlabs Discovery Services (No. 25, Wugong, 6th Road, Wugu District, New Taipai City, Taiwan). Compound binding was caluculated as a % inhibition of the binding of radioactively labeled ligand specific for each target. […]
pEC50: −log10 of the molar value.
Measurement Name: pEC50

Task: // returns reported pEC50 for input COc1cc(Cl)cc(N(CC23CCC(c4ccc(OC)c(C#N)c4)(CC2)CC3)C(=O)c2ccncc2C)c1 [Compound 20p]
Result: < 4.52
